Source of measurements: patent US5854280A

Tested on: C. albicans 2005E
Experiment: in vitro antifungal MIC, two-fold serial dilution
Format: cell-based, Candida albicans
Procedure: The in vitro evaluation of the anti-fungal activity of compounds of the invention was performed on liquid or solid medium by the anti-fungal two-fold serial dilution technique of determining the minimum inhibitory concentration (MIC) of anti-fungal agent that inhibited development of growth after 24 to 48 hours of incubation at 37° C. […]
measured.attribute: MIC (minimum inhibiting concentration) (ng/mL)

compound: CC(C)C1=CC2CC3(C=O)C4CCC(C)C4CC2(COC2OC(C)C4OC(C)(C)OC4C2O)C13C(=O)O (stereo not drawn)
measured.attribute: MIC (minimum inhibiting concentration)
unit.annotation: ng/mL
limit.qualifier: =
reported.result: 120
--
compound: CC(C)C1=CC2CC3(C=O)C4CCC(C)C4CC2(COC2CC4C(C)COC4C(C)O2)C13C(=O)[O-].[Na+] (stereo not drawn)
measured.attribute: MIC (minimum inhibiting concentration)
unit.annotation: ng/mL
limit.qualifier: ≤
reported.result: 1
--
compound: CC(C)C1=CC2CC3(C=O)C4CCC(C)C4CC2(COC2CC4OCOC4C(C)O2)C13C(=O)[O-].[Na+] (stereo not drawn)
measured.attribute: MIC (minimum inhibiting concentration)
unit.annotation: ng/mL
limit.qualifier: =
reported.result: 8
--
compound: C=CCOC1C(C)OC(OCC23CC4C(C)CCC4C4(C=O)CC2C=C(C(C)C)C43C(=O)O)C2OC12 (stereo not drawn)
measured.attribute: MIC (minimum inhibiting concentration)
unit.annotation: ng/mL
limit.qualifier: =
reported.result: 60
--
compound: CC(C)C1=CC2CC3(C=O)C4CCC(C)C4CC2(COC2CC4C(=O)COC4C(C)O2)C13C(=O)O (stereo not drawn)
measured.attribute: MIC (minimum inhibiting concentration)
unit.annotation: ng/mL
limit.qualifier: =
reported.result: 1
--
compound: CC(C)C1=CC2CC3(C=O)C4CCC(C)C4CC2(COC2CC4OCC(C)C4C(C)O2)C13C(=O)O (stereo not drawn)
measured.attribute: MIC (minimum inhibiting concentration)
unit.annotation: ng/mL
limit.qualifier: =
reported.result: 1

----------
System: C. psuedotropicalis 2371E
Assay: in vitro antifungal MIC, two-fold serial dilution
Type: cell-based, Candida pseudotropicalis

molecule: CC(C)C1=CC2CC3(C=O)C4CCC(C)C4CC2(COC2CC4OC(C)(C)OC4C(C)O2)C13C(=O)O (stereo not drawn) [Example 6]
unit.annotation: ng/mL
limit.qualifier: =
MIC (minimum inhibiting concentration): 4

molecule: C=C1COC2C(C)OC(OCC34CC5C(C)CCC5C5(C=O)CC3C=C(C(C)C)C54C(=O)[O-])CC12.[Na+] (stereo not drawn) [Example 34]
unit.annotation: ng/mL
limit.qualifier: ≤
MIC (minimum inhibiting concentration): 1

molecule: CCCOC1C(C)OC(OCC23CC4C(C)CCC4C4(C=O)CC2C=C(C(C)C)C43C(=O)O)C2OC12 (stereo not drawn) [Example 52]
unit.annotation: ng/mL
limit.qualifier: =
MIC (minimum inhibiting concentration): 1

molecule: CC(C)C1=CC2CC3(C=O)C4CCC(C)C4CC2(COC2OC(C)C4OC(C)(C)OC4C2O)C13C(=O)O (stereo not drawn) [Example 1]
unit.annotation: ng/mL
limit.qualifier: =
MIC (minimum inhibiting concentration): 60

molecule: CC(C)C1=CC2CC3(C=O)C4CCC(C)C4CC2(COC2OC(C)C(OCc4ccccc4)C4OC24)C13C(=O)O (stereo not drawn) [Example 54]
unit.annotation: ng/mL
limit.qualifier: =
MIC (minimum inhibiting concentration): 10

molecule: COC1C(C)OC(OCC23CC4C(C)CCC4C4(C=O)CC2C=C(C(C)C)C43C(=O)O)C2SC12 (stereo not drawn) [Example 51]
unit.annotation: ng/mL
limit.qualifier: =
MIC (minimum inhibiting concentration): 8

----------
Tested on: C. albicans 1208E
Assay: in vitro antifungal MIC, two-fold serial dilution
Format: cell-based, Candida albicans

compound: CC(C)C1=CC2CC3(C=O)C4CCC(C)C4CC2(COC2CC4OCC(C)C4C(C)O2)C13C(=O)O (stereo not shown)
MIC (minimum inhibiting concentration): 1 ng/mL

compound: CC(C)C1=CC2CC3(C=O)C4CCC(C)C4CC2(COC2CC4C(=O)COC4C(C)O2)C13C(=O)O (stereo not shown)
MIC (minimum inhibiting concentration): 60 ng/mL

compound: CC(C)C1=CC2CC3(C=O)C4CCC(C)C4CC2(COC2CC4OC(C)(C)OC4C(C)O2)C13C(=O)O (stereo not shown)
MIC (minimum inhibiting concentration): 8 ng/mL

compound: CCCOC1C(C)OC(OCC23CC4C(C)CCC4C4(C=O)CC2C=C(C(C)C)C43C(=O)O)C2OC12 (stereo not shown)
MIC (minimum inhibiting concentration): 4 ng/mL

compound: CC(C)C1=CC2CC3(C=O)C4CCC(C)C4CC2(COC2CC4C(C)COC4C(C)O2)C13C(=O)[O-].[Na+] (stereo not shown)
MIC (minimum inhibiting concentration): ≤ 1 ng/mL

compound: COC1C(C)OC(OCC23CC4C(C)CCC4C4(C=O)CC2C=C(C(C)C)C43C(=O)O)C2SC12 (stereo not shown)
MIC (minimum inhibiting concentration): 120 ng/mL

compound: CC(C)C(=O)OC1C(C)OC(OCC23CC4C(C)CCC4C4(C=O)CC2C=C(C(C)C)C43C(=O)O)C2OC12 (stereo not shown)
MIC (minimum inhibiting concentration): 15 ng/mL

----------
MIC (minimum inhibiting concentration) for assorted compounds
Tested on: C. albicans 2005E
Assay: in vitro antifungal MIC, two-fold serial dilution
Type: cell-based, Candida albicans
measured.attribute: MIC (minimum inhibiting concentration) (ng/mL)

compound: CC(C)C1=CC2CC3(C=O)C4CCC(C)C4CC2(COC2CC4OC(C)(C)OC4C(C)O2)C13C(=O)O (stereo not shown) [Example 6]
system.tested: C. albicans 2005E
limit.qualifier: =
reported.result: 1
//
compound: COC1C(C)OC(OCC23CC4C(C)CCC4C4(C=O)CC2C=C(C(C)C)C43C(=O)O)C2SC12 (stereo not shown) [Example 51]
system.tested: C. albicans 2005E
limit.qualifier: =
reported.result: 30
//
compound: CC(C)C1=CC2CC3(C=O)C4CCC(C)C4CC2(COC2CC4=CCOC4C(C)O2)C13C(=O)O (stereo not shown) [Example 43]
system.tested: C. albicans 2005E
limit.qualifier: =
reported.result: 1
//
compound: C=C1COC2C(C)OC(OCC34CC5C(C)CCC5C5(C=O)CC3C=C(C(C)C)C54C(=O)[O-])CC12.[Na+] (stereo not shown) [Example 34]
system.tested: C. albicans 2005E
limit.qualifier: =
reported.result: 1
//
compound: CCCOC1C(C)OC(OCC23CC4C(C)CCC4C4(C=O)CC2C=C(C(C)C)C43C(=O)O)C2OC12 (stereo not shown) [Example 52]
system.tested: C. albicans 2005E
limit.qualifier: =
reported.result: 1
//
compound: CC(C)C1=CC2CC3(C=O)C4CCC(C)C4CC2(COC2OC(C)C(OCc4ccccc4)C4OC24)C13C(=O)O (stereo not shown) [Example 54]
system.tested: C. albicans 2005E
limit.qualifier: ≤
reported.result: 1
//
compound: CC(C)C(=O)OC1C(C)OC(OCC23CC4C(C)CCC4C4(C=O)CC2C=C(C(C)C)C43C(=O)O)C2OC12 (stereo not shown) [Example 59]
system.tested: C. albicans 2005E
limit.qualifier: ≤
reported.result: 1

----------
System: C. psuedotropicalis 2371E
Experiment: in vitro antifungal MIC, two-fold serial dilution
Format: cell-based, Candida pseudotropicalis
MIC (minimum inhibiting concentration) for assorted molecules

molecule: CC(C)C(=O)OC1C(C)OC(OCC23CC4C(C)CCC4C4(C=O)CC2C=C(C(C)C)C43C(=O)O)C2OC12 (stereo not shown)
limit.qualifier: =
MIC (minimum inhibiting concentration) / ng/mL: 15
//
molecule: CC(C)C1=CC2CC3(C=O)C4CCC(C)C4CC2(COC2CC4C(=O)COC4C(C)O2)C13C(=O)O (stereo not shown)
limit.qualifier: =
MIC (minimum inhibiting concentration) / ng/mL: 60
//
molecule: C=CCOC1C(C)OC(OCC23CC4C(C)CCC4C4(C=O)CC2C=C(C(C)C)C43C(=O)O)C2OC12 (stereo not shown)
limit.qualifier: =
MIC (minimum inhibiting concentration) / ng/mL: 15
//
molecule: CC(C)C1=CC2CC3(C=O)C4CCC(C)C4CC2(COC2CC4C(C)COC4C(C)O2)C13C(=O)[O-].[Na+] (stereo not shown)
limit.qualifier: =
MIC (minimum inhibiting concentration) / ng/mL: 4
//
molecule: CC(C)C1=CC2CC3(C=O)C4CCC(C)C4CC2(COC2CC4OCOC4C(C)O2)C13C(=O)[O-].[Na+] (stereo not shown)
limit.qualifier: =
MIC (minimum inhibiting concentration) / ng/mL: 8
//
molecule: CC(C)C1=CC2CC3(C=O)C4CCC(C)C4CC2(COC2CC4=CCOC4C(C)O2)C13C(=O)O (stereo not shown)
limit.qualifier: <
MIC (minimum inhibiting concentration) / ng/mL: 1
//
molecule: CC(C)C1=CC2CC3(C=O)C4CCC(C)C4CC2(COC2CC4OCC(C)C4C(C)O2)C13C(=O)O (stereo not shown)
limit.qualifier: <
MIC (minimum inhibiting concentration) / ng/mL: 1
